Reference for the values: PubChem BioAssay (NCATS)

# Assay Name: qHTS of pediatric cancer cell lines to identify multiple opportunities for drug repurposing: Primary screen for Rh41 cells (AID 1347108); also: nearly all actives have a fitted effect of over 70% in size
# Experimental Context: Rh41 rhabdomyosarcoma viability, CellTiter-Glo luminescence, 48 h; series mostly up to 46 µM
Results filed as inconclusive are left out. The source made the active and inactive calls. Calls follow the shape of the dose curve; as a rule, active = well fitted cell-killing curve with a large enough effect; inconclusive = small, poorly fitted or top-dose-only effect; inactive = no such curve, though single readings can be large or run the other way.
Your answer must be one of the following: active, inactive

Qu. Which result was noted for this compound in the test: CC(C)[C@H]1C(=O)N[C@H](CO)Cc2c[nH]c3cccc(c23)N1C
Ans. inactive

Qu. Called result for Cc1nc(-c2ccc(-c3ccc(C(=O)N4CCc5cc6c(cc54)C4(CCN(C)CC4)CO6)cc3)c(C)c2)no1
Ans. inactive

Qu. Status in this test for CC(C)(C)[C@]1(O)C[C@@H]2OC(=O)C[C@@]23C(=O)O[C@@H]2OC(=O)[C@H](O)C213 (stereo partly drawn) ?
Ans. inactive

Qu. For CO[C@H]1CCC(O[C@H]2C[C@H]([C@]3(C)CC[C@]4(C[C@H](O)[C@@H](C)[C@@H]([C@@H](C)C=C(C)C(=O)[C@H](C)C[C@H](C)C(=O)O)O4)O3)O[C@]3(O[C@@H]([C@H]4O[C@@](O)(CO)[C@H](C)C[C@H]4C)C[C@H]3C)[C@H]2C)O[C@H]1C (stereo partly drawn) , which call appears in the assay record?
Ans. active

====

# Assay Name: qHTS for Inhibitors of the Functional Ribonucleoprotein Complex (vRNP) of Lassa (LASV) Arenavirus: Viability assay - alamar blue signal for LASV Primary Screen (AID 1347083); also: nearly all actives have a fitted effect of over 80% in size
# Experimental Context: cell viability, alamar blue fluorescence (LASV minigenome counter-screen); series mostly up to 57.5 µM
Inconclusive results are not listed. Activity calls are given as the source filed them. Calls come from the whole dose curve; tested in HEK293 reporter line.
Your response should consist of one outcome taken from active, inactive

Compound: NC(=O)CN1CC(O)CC1=O (stereo not drawn)
Class Label: inactive

Qu. I'd appreciate the recorded outcome for O=C(O)c1ccc(-c2cc3cccnc3c(-c3ccc4nonc4c3)n2)cc1 from this test.
Ans. inactive

Qu. Outcome? Cc1cc(C=c2sc3nc4ccccc4n3c2=O)c(C)n1-c1ccccc1
Ans. inactive

Qu. Please indicate how the test categorized Nc1ccc(O)c([N+](=O)[O-])c1 .
Ans. inactive

Qu. Hi, do you know how Fc1ccc(Cl)cc1-c1nc(Nc2ccncc2)c2nccnc2n1 came out in this test?
Ans. inactive

Qu. What did this assay record as the result for CN(C)c1ccc(N=NS(=O)(=O)O)cc1 ?
Ans. inactive

====

# Assay Name: qHTS of pediatric cancer cell lines to identify multiple opportunities for drug repurposing: Primary screen for RD cells (AID 1347104); also: nearly all actives have a fitted effect of over 55% in size
# Experimental Context: RD rhabdomyosarcoma viability, CellTiter-Glo luminescence, 48 h; series mostly up to 46 µM
Inconclusive results are not listed. Activity calls are given as the source filed them. Calls come from the whole dose curve; as a rule, active = well fitted cell-killing curve with a large enough effect; inconclusive = small, poorly fitted or top-dose-only effect; inactive = flat fitted curve, though single readings scatter.
Respond with a class label; see TRUE = active, FALSE = inactive

Compound: CCC1(CCC(C)C)C(=O)NC(=O)NC1=O
Class Label: FALSE

Compound: CC(C)(O)C=CC(=O)[C@](C)(O)[C@H]1[C@H](O)C[C@]2(C)[C@@H]3CC=C4[C@@H](C=C(O)C(=O)C4(C)C)[C@]3(C)C(=O)C[C@@]12C
Class Label: TRUE

Compound: COc1cccc2c1[C@]13CCN(CC4CC4)[C@H](C2)[C@]1(OC)CCC(=O)C3
Class Label: FALSE

Compound: O=[N+]([O-])c1cc([N+](=O)[O-])c2ccccc2c1
Class Label: FALSE

Please turn your attention to the following entry.
Qu. Please indicate how the test categorized CCOC(=O)c1cncn1[C@H](C)c1ccccc1 .
Ans. FALSE

====

# Assay Name: Immunotoxin (SS1P) sensitization/mitigation study. Vehicle arm (DMEM) (AID 1159513)
# Experimental Context: cell viability with vehicle (DMEM); series mostly up to 46.1 µM
Activity calls are given as the source filed them. No rule for the calls is given here.
Just give me one of these, please: yes (1) for active, no (0) for inactive

Would you please look over these solved cases?
Compound: Cc1ccc(F)c(NC(=O)Nc2ccc(-c3cccc4[nH]nc(N)c34)cc2)c1
Class Label: yes (1)

Compound: COc1nc(C)cnc1NS(=O)(=O)c1cccnc1-c1ccc(-c2nnco2)cc1
Class Label: no (0)

Compound: Nc1cc(C(F)(F)F)c(-c2cc(N3CCOCC3)nc(N3CCOCC3)n2)cn1
Class Label: yes (1)

Compound: Cc1cc(Nc2nc(N[C@@H](C)c3ncc(F)cn3)ncc2Cl)n[nH]1
Class Label: no (0)

Qu. So what was the verdict on CCCCCCCCCCCCCC(=O)N[C@H](CO)[C@H](O)c1ccc([N+](=O)[O-])cc1 in this test?
Ans. yes (1)

====

# Test System: Cytochrome P450 2C9 (Homo sapiens)
# Assay Name: Cytochrome P450 family 2 subfamily C member 9 (CYP2C9) small molecule antagonists: luciferase biochemical (cell-free) qHTS assay (AID 1645842); also: nearly all actives have a fitted effect of over 55% in size; also: potency is read from the fitted curve at half-maximal effect
# Experimental Context: P450-Glo CYP2C9 enzyme assay, luciferin luminescence; series mostly up to 57.4 µM
Inconclusive results are not listed. Calls of active or inactive are those of the source. The call rests on the fitted dose curve; in most records, active means well fitted inhibition curve with a large enough effect in the repeat runs; inconclusive means weak or mixed curves; inactive means no such curve, though single readings can be large or run the other way.
Quantity Measured: Potency

Here are 5 compounds together with their reported answers.
Compound: CC1=C(C(=O)O)N2C(=O)[C@@H](N)[C@H]2SC1
Potency: inactive
--
Compound: CC(C)(C)C(O)C(Oc1ccc(Cl)cc1)n1cncn1 (centres undefined)
Potency: 21.2 µM (active)
--
Compound: CCc1c(C(=O)C(N)=O)c2c(OCC(=O)O)cccc2n1Cc1ccccc1
Potency: inactive
--
Compound: Nc1ccc(Cl)cc1N
Potency: 23.3 µM (active)
--
Compound: CCN1CCN(C(=O)Cc2ccc(Nc3ncc(F)c(Nc4ccc(C(=O)Nc5ccccc5Cl)cc4)n3)cc2)CC1
Potency: 1.9 µM (active)

Batch of 7 compounds: report Potency for each.
1. Cc1ccc(Cl)c(O)c1
2. O=[N+]([O-])/N=C1\NCCN1Cc1ccc(Cl)nc1
3. O=S(=O)(c1ccc(Cl)cc1)c1ccc(Cl)cc1
4. Cc1c(C(=O)Nc2cccc(C(F)(F)F)c2)cc(-c2ccccc2)n1CCCN1CCOCC1
5. C[C@]12COC(=O)C[C@@H]1CC[C@@H]1[C@H]2CC[C@@]2(C)[C@H]1CC[C@]2(C)O
6. COC(=O)c1cncn1C(C)c1ccccc1 (centres undefined)
7. O=C(O)c1ccccn1

Ans.
1. inactive
2. inactive
3. 27.8 µM (active)
4. 4.77 µM (active)
5. inactive
6. 11 µM (active)
7. inactive

For each entry beneath this line, provide reported Potency.
1. Cc1[nH]nc2ccc(-c3cncc(OC[C@@H](N)Cc4c[nH]c5ccccc45)c3)cc12
2. CCO/N=C(\CC)C1=C(O)CC(c2c(C)cc(C)cc2C)CC1=O (centres undefined)
3. O=C(O)C(Cl)Cl

Ans.
0.674 µM (active)
4.48 µM (active)
inactive

For every item below, please supply its Potency.
1. Fc1cc(Br)ccc1CBr
2. CCC1(CCC(C)C)C(=O)NC(=O)NC1=O
3. O=[N+]([O-])c1cc([N+](=O)[O-])c2ccccc2c1
4. CCOCCOC(C)=O

Ans.
1. inactive
2. inactive
3. inactive
4. inactive

I have 7 compounds here; please give me Potency for each one.
1. O=C(O)COc1nc(Cl)c(Cl)cc1Cl
2. O=S(=O)(O)C(F)(F)C(F)(F)C(F)(F)C(F)(F)F
3. Oc1ccc2c3c1O[C@H]1[C@@H](O)C=C[C@H]4[C@@H](C2)NCC[C@@]341
4. CC(C)Oc1cccc(NC(=O)c2ccccc2C(F)(F)F)c1
5. O=[N+]([O-])c1ccc([As](=O)(O)O)cc1
6. CC(C)(C)NC[C@H](O)c1ccc(O)cc1Cl
7. CCCCCCCCCC(CC)c1ccc(S(=O)(=O)O)cc1 (centres undefined)

Ans.
["inactive", "18.9 µM (active)", "inactive", "5.97 µM (active)", "inactive", "inactive", "7.74 µM (active)"]

====

# Assay Name: qHTS of pediatric cancer cell lines to identify multiple opportunities for drug repurposing: Primary screen for TC32 cells (AID 1347089); also: nearly all actives have a fitted effect of over 60% in size
# Experimental Context: TC32 Ewing sarcoma viability, CellTiter-Glo luminescence, 48 h; series mostly up to 45.8 µM
Inconclusive results are not listed. Active and inactive are the calls of the source. Calls come from the whole dose curve; as a rule, active = well fitted cell-killing curve with a large enough effect; inconclusive = small, poorly fitted or top-dose-only effect; inactive = flat fitted curve, though single readings scatter.
Respond only with the outcome that fits, drawn from active, inactive

Compound: CC(=O)N(C)c1cccc(-c2ccnc3c(C(=O)c4cccs4)cnn23)c1
Class Label: inactive
--
Compound: CN(C)NC(=O)CCC(=O)O
Class Label: inactive
--
Compound: CCCN1CCO[C@@H]2c3cc(O)ccc3OC[C@@H]21
Class Label: inactive
--
Compound: COc1ccc(C(c2ccc(OC)cc2)C(Cl)(Cl)Cl)cc1
Class Label: inactive
--
Compound: COc1ccc(C(=O)c2c(C)n(CCN3CCOCC3)c3cc(I)ccc23)cc1
Class Label: inactive
--
Compound: COc1ccc2c(c1)CN(C)CC2c1ccc(Cl)c(Cl)c1 (stereo unspecified)
Class Label: inactive
--
Compound: Nc1c(Cl)c(Cl)c(Cl)c(Cl)c1Cl
Class Label: inactive
--
Compound: C=CC(=O)NCNC(=O)C=C
Class Label: inactive
--
Compound: CC=C(C)C(=O)N[C@@H](c1ccccc1)[C@@H](O)C(=O)O[C@H]1C[C@@]2(O)[C@@H](OC(=O)c3ccccc3)[C@@H]3[C@]4(OC(C)=O)CO[C@@H]4C[C@H](O)[C@@]3(C)C(=O)[C@H](OC(C)=O)C(=C1C)C2(C)C
Class Label: active
--
Compound: C#C[C@]1(O)C=C[C@@H]2[C@@H]3CCC4=CC(=O)CC[C@@H]4[C@H]3CC[C@@]21CC
Class Label: inactive

Qu. Recorded test call requested for NC1=NC(=O)N2CC12 (stereo unspecified)
Ans. inactive

Qu. I would be grateful if you could indicate the recorded call for CCN(CC)C(=O)c1ccc(C2=CC3(CCNCC3)Oc3cccc(O)c32)cc1 .
Ans. inactive

Qu. Check the results log: what was the call for C[C@]12CC[C@H]3[C@@H](CCC4=CC(=O)CC[C@@]43C)[C@H]1CC[C@H]2OC(=O)CCC1CCCC1 ?
Ans. inactive
